- target.desc: pylRS/tRNA pair (Methanosarcina mazei, UniProt Q8PWY1, Y384F)
- Construct: expressed in transfected cells; host or cells: HEK293 cells stably expressing pylRS
- Sequence (Q8PWY1 whole entry Y384F): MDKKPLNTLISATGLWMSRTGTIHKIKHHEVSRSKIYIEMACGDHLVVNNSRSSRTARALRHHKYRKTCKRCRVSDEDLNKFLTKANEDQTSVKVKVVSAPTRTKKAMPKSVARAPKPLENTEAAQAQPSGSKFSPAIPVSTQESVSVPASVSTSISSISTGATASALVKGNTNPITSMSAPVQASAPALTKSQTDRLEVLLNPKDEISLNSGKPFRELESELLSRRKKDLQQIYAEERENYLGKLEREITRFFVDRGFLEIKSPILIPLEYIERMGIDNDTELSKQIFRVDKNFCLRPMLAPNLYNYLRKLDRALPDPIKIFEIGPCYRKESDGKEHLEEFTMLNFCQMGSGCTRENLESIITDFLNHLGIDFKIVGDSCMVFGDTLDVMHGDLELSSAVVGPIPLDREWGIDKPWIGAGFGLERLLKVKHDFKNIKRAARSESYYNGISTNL
- Assay type: cell-based
- condition.set: HEK293 cells stably expressing pylRS, tRNApyl and GFPY40 reporter; nnAAs at 2 mM for 2-3 days; GFP fluorescence by flow cytometry, geometric mean of the fluorescent cells
- Protocol: An in vitro cell based assay was developed to assess the compatibility of the pylRS/tRNA pair and the pyrrolysine analogs of the present invention (nnAAs) by and the efficiency of nnAAs integration into a target protein. […] Transfected cells were incubated with nnAAs at 2 mM for 2-3 days GFP production was analyzed qualitatively by visual inspection under the microscope. […]
Exercise: for every item that follows, state its recorded MFI.

Entry `[N-]=[N+]=NCCNC(=O)NCCCC[C@H](N)C(=O)O` , MFI reported as 254250

Batch request: MFI per item, same order as input.
1. C=CCOC(=O)NCCCC[C@H](N)C(=O)O
2. [N-]=[N+]=NCCOC(=O)NCCCC[C@H](N)C(=O)O
3. C#CCOC(=O)NCCCC[C@H](N)C(=O)O

Result:
["2,250,000", "931,289", "1,676,250"]
